- MEASUREMENT_TARGET: T1, recombinant human galectin-10, TEV-cleaved (human, UniProt Q05315 1-142)
- T1 sequence: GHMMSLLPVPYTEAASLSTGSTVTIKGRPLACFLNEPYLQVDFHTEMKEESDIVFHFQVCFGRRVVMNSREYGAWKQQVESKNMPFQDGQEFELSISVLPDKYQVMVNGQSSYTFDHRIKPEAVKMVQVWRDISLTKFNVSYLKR
- METHOD_SUMMARY: cell-based or functional assay
Below is a list of entries, each paired with its recorded 50% dissolution (min) of CLCs, antibody 50 uM value.
OUTCOME_MEASURE: 50% dissolution (min) of CLCs, antibody 50 uM

binder="10A06 mouse IgG1 (antibody, V domains shown, VH and VL cloned in frame with mouse IgG1 constant domains; also called 10A06 mIgG1) VH: QVQLVESGGGLVQPGGSLRLSCAASGFTFGNYDMSWVRQAPGKGPEWVSDINSGGGSTYYADSVKGRFTISRDNAKNSLLLQMNSLKPEDTAVYYCATGYTGYYYWGQGTQVTVSS VL: QTVVTQEPSLSVSPGGTVTLTCGLSSGSVTSSNYPAWYQQTPGQAPRALIYSINSRHSGVPDRFSGSISGNKAALTITGAQAEDEADYYCTLYMGTGSNNVVFGGGTHLTVL" readout_units=min experimental_result=44.5
binder="10D02 mouse IgG1 (antibody, V domains shown, VH and VL cloned in frame with mouse IgG1 constant domains; also called 10D02 mIgG1) VH: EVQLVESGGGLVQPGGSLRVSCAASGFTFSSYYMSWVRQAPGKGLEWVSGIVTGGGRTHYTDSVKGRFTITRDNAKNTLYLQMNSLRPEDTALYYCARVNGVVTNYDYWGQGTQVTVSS VL: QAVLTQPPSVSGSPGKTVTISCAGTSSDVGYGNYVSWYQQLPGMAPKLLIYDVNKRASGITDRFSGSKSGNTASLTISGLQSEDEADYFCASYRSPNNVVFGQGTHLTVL" readout_units=min experimental_result=26.5
binder="1D11 mouse IgG1 (antibody, V domains shown, Llama VH and VL on mouse IgG1 heavy chain constant domains (CH1-CH2-CH3) and mouse lambda light chain constant domain; also called 1D011; 1D11 mIgG1) VH: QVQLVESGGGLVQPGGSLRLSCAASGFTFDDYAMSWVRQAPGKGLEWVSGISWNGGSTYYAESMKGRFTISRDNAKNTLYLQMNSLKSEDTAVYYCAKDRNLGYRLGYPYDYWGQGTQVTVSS VL: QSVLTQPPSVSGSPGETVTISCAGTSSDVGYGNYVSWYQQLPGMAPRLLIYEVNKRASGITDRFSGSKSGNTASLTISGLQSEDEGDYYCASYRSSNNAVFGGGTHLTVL" readout_units=min experimental_result=30.1
binder="7B07 mouse IgG1 (antibody, V domains shown, VH and VL cloned in frame with mouse IgG1 constant domains; also called 7B07 mIgG1) VH: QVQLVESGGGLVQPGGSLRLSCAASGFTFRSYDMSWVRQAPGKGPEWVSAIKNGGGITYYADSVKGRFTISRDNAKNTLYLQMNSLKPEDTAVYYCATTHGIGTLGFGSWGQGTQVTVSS VL: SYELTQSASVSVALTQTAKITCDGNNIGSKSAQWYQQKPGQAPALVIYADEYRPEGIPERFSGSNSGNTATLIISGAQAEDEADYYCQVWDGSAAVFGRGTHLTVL" readout_units=min experimental_result=13.2
binder="8H11 mouse IgG1 (antibody, V domains shown, VH and VL cloned in frame with mouse IgG1 constant domains; also called 8H11 mIgG1) VH: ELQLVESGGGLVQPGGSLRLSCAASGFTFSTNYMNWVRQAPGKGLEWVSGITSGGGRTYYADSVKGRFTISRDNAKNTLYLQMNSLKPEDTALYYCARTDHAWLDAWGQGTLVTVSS VL: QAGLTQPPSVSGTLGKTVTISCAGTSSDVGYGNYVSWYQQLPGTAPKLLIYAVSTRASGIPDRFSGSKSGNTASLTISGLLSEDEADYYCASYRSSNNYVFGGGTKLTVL" readout_units=min experimental_result=22.4
binder="10B02 mouse IgG1 (antibody, V domains shown, VH and VL cloned in frame with mouse IgG1 constant domains; also called 10B02 mIgG1) VH: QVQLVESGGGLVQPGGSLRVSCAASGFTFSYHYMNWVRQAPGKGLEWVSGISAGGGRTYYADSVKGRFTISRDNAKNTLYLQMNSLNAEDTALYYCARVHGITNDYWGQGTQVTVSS VL: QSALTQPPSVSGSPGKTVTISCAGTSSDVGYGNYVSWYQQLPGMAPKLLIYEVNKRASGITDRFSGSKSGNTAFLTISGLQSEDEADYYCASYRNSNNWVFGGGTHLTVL" readout_units=min experimental_result=25.1
binder="11F12 mouse IgG1 (antibody, V domains shown, VH and VL cloned in frame with mouse IgG1 constant domains; also called 11F12 mIgG1) VH: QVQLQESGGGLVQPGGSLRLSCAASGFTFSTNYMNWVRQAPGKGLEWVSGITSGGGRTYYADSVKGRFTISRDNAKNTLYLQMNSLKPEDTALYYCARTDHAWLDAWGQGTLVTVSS VL: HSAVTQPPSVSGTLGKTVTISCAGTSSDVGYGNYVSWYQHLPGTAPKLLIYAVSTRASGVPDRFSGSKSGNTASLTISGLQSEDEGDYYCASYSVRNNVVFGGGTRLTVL" readout_units=min experimental_result=21.3
binder="11F02 mouse IgG1 (antibody, V domains shown, VH and VL cloned in frame with mouse IgG1 constant domains; also called 11F02 mIgG1) VH: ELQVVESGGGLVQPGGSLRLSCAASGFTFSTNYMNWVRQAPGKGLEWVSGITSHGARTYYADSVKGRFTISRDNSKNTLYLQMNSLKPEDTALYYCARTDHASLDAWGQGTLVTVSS VL: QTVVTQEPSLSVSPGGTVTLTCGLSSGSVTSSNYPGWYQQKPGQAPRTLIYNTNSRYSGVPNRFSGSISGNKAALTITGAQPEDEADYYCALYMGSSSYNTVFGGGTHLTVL" readout_units=min experimental_result=25.5
